Catalogue of compounds with associated DC50
SYSTEM: WT BTK protein (Homo sapiens, UniProt Q06187)
Construct: measured for intracellular BTK protein levels by Western blotting; endogenous in cells; host or cells: TMD-8 or RAMOS cells
TEST NAME: BTK protein degradation assay (Western blotting), WT BTK
Format: cell-based
RUN PARAMETERS: concentration range accounting for 50% degradation of WT BTK protein, TMD-8 or RAMOS cells, 24 hours

>  <COMPOUND>
Cc1cccc(C)c1Nc1nn(C)c2nc(Nc3ccc(C4CCN(C5CCN(c6ccc7c(c6)C(=O)N(C6CCC(=O)NC6=O)C7=O)CC5)CC4)cc3)ncc12 (stereo not drawn)

>  <SYSTEM>
WT BTK protein (Homo sapiens, UniProt Q06187)

>  <REPORTED RESULT>
0.1 to 10 nM

$$$$

# get_value(readout='DC50', item= Cn1nc(Nc2c(Br)cccc2Br)c2cnc(Nc3ccc4c(c3)CN(CC3CCN(c5ccc6c(c5)C(=O)N(C5CCC(=O)NC5=O)C6=O)CC3)CC4)nc21 (stereo not drawn) )
0.1 to 10 nM

# get_value(readout='DC50', item= Cc1cccc(C)c1Nc1nn(C)c2nc(Nc3ccc(N4CCN(CC5CN(c6ccc7c(c6)C(=O)N(C6CCC(=O)NC6=O)C7=O)C5)C[C@@H]4C)cc3)ncc12 (stereo partly drawn) )
0.1 to 10 nM

----------
Catalogue of molecules with associated DC50
SYSTEM: C481S BTK protein (Homo sapiens, UniProt Q06187, C481S)
Construct: expressed in transfected cells; host or cells: 293T BTK MUT (C481S) cells
Sequence (Q06187 whole entry C481S): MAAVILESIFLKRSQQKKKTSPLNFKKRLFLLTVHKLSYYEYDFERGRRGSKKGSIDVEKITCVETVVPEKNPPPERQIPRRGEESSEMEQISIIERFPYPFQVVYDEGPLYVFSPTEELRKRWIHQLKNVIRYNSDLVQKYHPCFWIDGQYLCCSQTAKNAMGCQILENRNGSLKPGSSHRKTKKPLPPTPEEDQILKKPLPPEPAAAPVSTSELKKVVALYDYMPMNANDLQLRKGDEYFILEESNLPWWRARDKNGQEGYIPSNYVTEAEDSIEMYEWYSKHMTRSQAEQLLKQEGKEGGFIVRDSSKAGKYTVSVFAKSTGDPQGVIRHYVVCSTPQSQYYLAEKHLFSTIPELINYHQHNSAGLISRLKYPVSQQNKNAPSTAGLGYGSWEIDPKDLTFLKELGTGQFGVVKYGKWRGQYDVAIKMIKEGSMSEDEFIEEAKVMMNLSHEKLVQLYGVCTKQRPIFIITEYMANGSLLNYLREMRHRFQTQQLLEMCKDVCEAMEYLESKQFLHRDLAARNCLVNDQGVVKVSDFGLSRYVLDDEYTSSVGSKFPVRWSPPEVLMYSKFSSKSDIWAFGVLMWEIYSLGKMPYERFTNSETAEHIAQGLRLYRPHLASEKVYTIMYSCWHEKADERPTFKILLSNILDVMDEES
TEST NAME: BTK protein degradation assay (Western blotting), C481S BTK
Format: cell-based
RUN PARAMETERS: concentration range accounting for 50% degradation of C481S BTK protein, 293T BTK MUT (C481S) cells

Record excerpt, results attached:
>  <MOLECULE>
Cc1cccc(C)c1Nc1nn(C)c2nc(Nc3ccc4c(c3)CN(CC3CCN(c5ccc6c(c5)C(=O)N(C5CCC(=O)NC5=O)C6=O)CC3)CC4)ncc12 (stereo not drawn)

>  <DC50>
10 to 1000 nM

$$$$
>  <MOLECULE>
Cc1cccc(C)c1Nc1nn(C)c2nc(Nc3ccc4c(c3)CN(CC3CCN(C(=O)C5CCN(c6ccc7nnn(C8CCC(=O)NC8=O)c(=O)c7c6)CC5)CC3)CC4)ncc12 (stereo not drawn)

>  <DC50>
0.1 to 10 nM

$$$$

# get_value(readout='DC50', item= Cc1cccc(C)c1Nc1nn(C)c2nc(Nc3ccc4c(c3)CN(C(=O)COCCOCCOCCOCCNC(=O)C3CCN(c5cccc6c5C(=O)N(C5CCC(=O)NC5=O)C6=O)CC3)CC4)ncc12 (stereo not drawn) )
10 to 1000 nM

----------
SYSTEM: C481S BTK protein (Homo sapiens, UniProt Q06187, C481S)
Construct: expressed in transfected cells; host or cells: 293T BTK MUT (C481S) cells
TEST NAME: BTK protein degradation assay (Western blotting), C481S BTK
Type: cell-based
RUN PARAMETERS: concentration range accounting for 50% degradation of C481S BTK protein, 293T BTK MUT (C481S) cells
Catalogue of compounds with associated DC50

Record excerpt, results attached:
>  <COMPOUND>
Cc1cccc(C)c1Nc1nn(C)c2nc(Nc3ccc4c(c3)CN(C(=O)COCCOCCNC(=O)C3CCN(c5cccc6c5C(=O)N(C5CCC(=O)NC5=O)C6=O)CC3)CC4)ncc12 (centres unmarked)

>  <DC50>
1 to 10 µM

$$$$
>  <COMPOUND>
Cc1cccc(C)c1Nc1nn(C)c2nc(Nc3ccc4c(c3)CN(CC3CCN(C(=O)CNc5ccc6c(=O)n(C7CCC(=O)NC7=O)nnc6c5)CC3)CC4)ncc12 (centres unmarked)

>  <DC50>
0.01 to 1 µM

$$$$

Any idea what DC50 came out for Cc1cccc(C)c1Nc1nn(C)c2nc(Nc3ccc4c(c3)CN(CCOCCNC(=O)C3CN(c5ccc6c(c5)C(=O)N(C5CCC(=O)NC5=O)C6=O)C3)CC4)ncc12 (centres unmarked) on C481S BTK protein (Homo sapiens, UniProt Q06187, C481S)?
1 to 10 µM

Any idea what DC50 came out for Cc1cccc(C)c1Nc1nn(C)c2nc(Nc3ccc4c(c3)CN(C(=O)CCOCCOCCOCCOCCNc3ccc5c(c3)C(=O)N(C3CCC(=O)NC3=O)C5=O)CC4)ncc12 (centres unmarked) on C481S BTK protein (Homo sapiens, UniProt Q06187, C481S)?
1 to 10 µM

Any idea what DC50 came out for Cc1cccc(C)c1Nc1nn(C)c2nc(Nc3ccc4c(c3)CN(C(=O)C3CCN(c5ccc6nnn(C7CCC(=O)NC7=O)c(=O)c6c5)CC3)CC4)ncc12 (centres unmarked) on C481S BTK protein (Homo sapiens, UniProt Q06187, C481S)?
0.01 to 1 µM

----------
Catalogue of compounds with associated DC50
SYSTEM: WT BTK protein (Homo sapiens, UniProt Q06187)
Construct: measured for intracellular BTK protein levels by Western blotting; endogenous in cells; host or cells: TMD-8 or RAMOS cells
TEST NAME: BTK protein degradation assay (Western blotting), WT BTK
Type: cell-based
RUN PARAMETERS: concentration range accounting for 50% degradation of WT BTK protein, TMD-8 or RAMOS cells, 24 hours

Record excerpt, results attached:
>  <COMPOUND>
Cc1cccc(C)c1Nc1nn(C)c2nc(Nc3ccc4c(c3)CN(C(=O)C3CCN(c5ccc6c(=O)n(C7CCC(=O)NC7=O)nnc6c5)CC3)CC4)ncc12 (centres unmarked)

>  <QUANTITY NAME>
DC50

>  <REPORTED RESULT>
10 to 1000 nM

$$$$
>  <COMPOUND>
Cc1cccc(C)c1Nc1nn(C)c2nc(Nc3ccc4c(c3)CN(C(=O)CCOCCOCCOCCOCCNc3ccc5c(c3)C(=O)N(C3CCC(=O)NC3=O)C5=O)CC4)ncc12 (centres unmarked)

>  <QUANTITY NAME>
DC50

>  <REPORTED RESULT>
0.1 to 10 nM

$$$$
>  <COMPOUND>
Cc1cccc(C)c1Nc1nn(C)c2nc(Nc3ccc4c(c3)CN(C(=O)CNc3ccc5c(c3)C(=O)N(C3CCC(=O)NC3=O)C5=O)CC4)ncc12 (centres unmarked)

>  <QUANTITY NAME>
DC50

>  <REPORTED RESULT>
10 to 1000 nM

$$$$
>  <COMPOUND>
Cc1cccc(C)c1Nc1nn(C)c2nc(Nc3ccc4c(c3)CN(C(=O)CCOCCOCCOCCOCCNC(=O)CNc3ccc5c(c3)C(=O)N(C3CCC(=O)NC3=O)C5=O)CC4)ncc12 (centres unmarked)

>  <QUANTITY NAME>
DC50

>  <REPORTED RESULT>
0.1 to 10 nM

$$$$
>  <COMPOUND>
Cc1cccc(C)c1Nc1nn(C)c2nc(Nc3ccc4c(c3)CN(C(=O)C3(F)CCN(C(=O)CNc5ccc6c(c5)C(=O)N(C5CCC(=O)NC5=O)C6=O)CC3)CC4)ncc12 (centres unmarked)

>  <QUANTITY NAME>
DC50

>  <REPORTED RESULT>
0.1 to 10 nM

$$$$

# get_value(readout='DC50', item= COc1ccc(C(=O)N2CCC(CC(=O)N3CCc4cc(Nc5ncc6c(Nc7c(C)cccc7C)nn(C)c6n5)ccc4C3)CC2)cc1N1CCC(=O)NC1=O )
10 to 1000 nM

# get_value(readout='DC50', item= Cc1cccc(C)c1Nc1nn(C)c2nc(Nc3ccc(N4CCN(CC5CCN(c6ccc7c(c6)C(=O)N(C6CCC(=O)NC6=O)C7=O)CC5)CC4)nn3)ncc12 (centres unmarked) )
0.1 to 10 nM

----------
SYSTEM: WT BTK protein (Homo sapiens, UniProt Q06187)
Construct: measured for intracellular BTK protein levels by Western blotting; endogenous in cells; host or cells: TMD-8 or RAMOS cells
TEST NAME: BTK protein degradation assay (Western blotting), WT BTK
Type: cell-based
RUN PARAMETERS: concentration range accounting for 50% degradation of WT BTK protein, TMD-8 or RAMOS cells, 24 hours
QUANTITY NAME: DC50

Record excerpt, results attached:
>  <MOLECULE>
Cc1cccc(C)c1Nc1nn(C)c2nc(Nc3ccc4c(c3)CN(C(=O)CCCCCNc3cccc5c3C(=O)N(C3CCC(=O)NC3=O)C5=O)CC4)ncc12 (centres unmarked)

>  <REPORTED RESULT>
10 to 1000 nM

$$$$
>  <MOLECULE>
Cc1cccc(C)c1Nc1nn(C)c2nc(Nc3ccc4c(c3)CN(CC3CCN(C(=O)CNc5cc6c(cc5F)C(=O)N(C5CCC(=O)NC5=O)C6=O)CC3)CC4)ncc12 (centres unmarked)

>  <REPORTED RESULT>
0.1 to 10 nM

$$$$
>  <MOLECULE>
Cc1cccc(C)c1Nc1nn(C)c2nc(Nc3ccc4c(c3)CN(CCOCCNC(=O)C3CCN(c5cccc6c5C(=O)N(C5CCC(=O)NC5=O)C6=O)CC3)CC4)ncc12 (centres unmarked)

>  <REPORTED RESULT>
0.1 to 10 nM

$$$$

# get_value(readout='DC50', item= Cc1cccc(C)c1Nc1nn(C)c2nc(Nc3ccc4c(c3)CN(CC(O)CN3CCN(c5ccc6c(c5)C(=O)N(C5CCC(=O)NC5=O)C6=O)CC3)CC4)ncc12 (centres unmarked) )
0.1 to 10 nM

# get_value(readout='DC50', item= Cc1cccc(C)c1Nc1nn(C)c2nc(Nc3ccc4c(c3)CN(CC3CCN(C5CN(c6ccc7c(c6)C(=O)N(C6CCC(=O)NC6=O)C7=O)C5)CC3)CC4)ncc12 (centres unmarked) )
0.1 to 10 nM

Source: patent US12161722B2
